Study target: DNA repair protein RAD52 homolog (Homo sapiens, UniProt P43351)
Sequence (P43351 whole entry): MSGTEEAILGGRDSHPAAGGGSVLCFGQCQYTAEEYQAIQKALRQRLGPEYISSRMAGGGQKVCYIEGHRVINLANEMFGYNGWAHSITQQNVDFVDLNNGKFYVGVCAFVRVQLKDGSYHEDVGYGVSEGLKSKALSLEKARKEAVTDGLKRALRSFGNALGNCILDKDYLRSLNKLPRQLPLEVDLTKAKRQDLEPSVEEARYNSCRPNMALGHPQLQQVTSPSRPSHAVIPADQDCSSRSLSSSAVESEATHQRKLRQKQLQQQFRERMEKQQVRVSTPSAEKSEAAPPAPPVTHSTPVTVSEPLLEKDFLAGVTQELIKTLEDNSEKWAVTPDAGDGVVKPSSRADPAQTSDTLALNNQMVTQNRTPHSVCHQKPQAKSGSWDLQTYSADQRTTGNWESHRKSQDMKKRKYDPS
Type: functional, biochemical
The source made the active and inactive calls.
Parameter measured: AC50

// lookup AC50 for `COc1cc2nc(Nc3ccc(C)c(Cl)c3)nc(N)c2cc1OC` 9.23 µM (active)

Note, next up: `CN(C)CCCN(C(=O)c1ccco1)c1nc2ccc(Br)cc2s1` 14.1 µM (active)

Note, next up: `CCCCN(CC)CCNC(=O)CCC(=O)Nc1ccc2nc(N3CCN(C)CC3)cc(C)c2c1` 3.22 µM (active)

Note, next up: `O=C(c1ccc(-c2cc(O)c3ncccc3c2)cc1)N1CCNCC1` 1.66 µM (active)

Ref: ChEMBL document CHEMBL1201862
